testedOn: T1, CEACAM1 (Sino Biological) (human, UniProt P13688 35-428, limits assumed)
T1 construct: may be the same as CEACAM1-HIS; also called hCEACAM1; biotinylated soluble CEACAM1
T1 sequence: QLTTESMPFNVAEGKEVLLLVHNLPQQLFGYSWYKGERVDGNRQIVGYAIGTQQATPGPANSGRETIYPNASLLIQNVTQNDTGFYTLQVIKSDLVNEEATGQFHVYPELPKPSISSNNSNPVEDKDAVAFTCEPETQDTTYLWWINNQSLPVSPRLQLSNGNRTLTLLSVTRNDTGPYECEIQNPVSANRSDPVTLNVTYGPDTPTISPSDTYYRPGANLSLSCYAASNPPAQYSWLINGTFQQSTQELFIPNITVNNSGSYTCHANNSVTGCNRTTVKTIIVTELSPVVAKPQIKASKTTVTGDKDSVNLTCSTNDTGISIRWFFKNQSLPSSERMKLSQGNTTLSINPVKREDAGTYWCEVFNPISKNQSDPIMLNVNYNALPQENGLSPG
measurementNotes: SPR single-cycle
endpoint: fold better than Parent (KD) (fold)
The reply should contain only the number, in fold.

He13/L1 (antibody, IgG4, V domains shown, IgG4 S241P, kappa) VH: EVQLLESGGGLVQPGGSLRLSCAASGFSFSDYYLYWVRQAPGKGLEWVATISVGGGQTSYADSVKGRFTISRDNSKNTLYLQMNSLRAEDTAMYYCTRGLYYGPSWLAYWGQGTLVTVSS VL: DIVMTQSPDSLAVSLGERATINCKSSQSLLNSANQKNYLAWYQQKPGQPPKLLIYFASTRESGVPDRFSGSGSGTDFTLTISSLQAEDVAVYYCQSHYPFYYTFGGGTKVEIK ... 1.26

Now for another entry.
## Task Recorded fold better than Parent (KD) for He14/L20 (antibody, IgG4, V domains shown, IgG4 S241P, kappa) VH: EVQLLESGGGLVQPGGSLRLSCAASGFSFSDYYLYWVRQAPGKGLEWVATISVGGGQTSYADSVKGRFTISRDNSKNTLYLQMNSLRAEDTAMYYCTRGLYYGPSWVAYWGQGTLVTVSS VL: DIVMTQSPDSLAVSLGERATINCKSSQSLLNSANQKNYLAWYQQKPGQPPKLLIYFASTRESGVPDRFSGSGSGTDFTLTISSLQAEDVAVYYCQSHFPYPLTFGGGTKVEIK , please?
## Result 1.39
